Each entry below carries its reported growth inhibition.
Test: NCI Yeast Anticancer Drug Screen. Data for the rad50 strain (AID 155);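 also: 0% = growth of vehicle-only cultures of the same strain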
Conditions: S. cerevisiae rad50 strain growth inhibition; at 50.0 µM; hits give high values
About 79,000 compounds went through this panel and 15% of them were active in at least one assay; those are over-represented in the sample as a whole.
Reply numerically in %, unit not repeated.

> print(dat)
                                    molecule   measurement.name  units  endpoint.result
 1  CC[n+]1nc2ccccc2c(=Nc2ccccc2[N+](=O)[O-])[n-]1  growth inhibition      %             11.8
 2               Cc1cc(S(N)(=O)=O)c2ncccc2c1  growth inhibition      %              1.8
 3  COc1ccccc1NS(=O)(=O)c1ccc2ncn(NS(=O)(=O)c3ccc(Cl)cc3)c(=O)c2c1  growth inhibition      %             27.5
 4      CCOC(=O)C(=CNC(=S)Nc1ccccc1)C(=O)OCC  growth inhibition      %            -24.9
 5                     O=C(O)C1(c2ccccc2)CC1  growth inhibition      %              8.5
 6  CCSC(SCC)C(Nc1ccc([N+](=O)[O-])cc1[N+](=O)[O-])C(OC(C)=O)C(OC(C)=O)C(COC(C)=O)OC(C)=O (centres undefined)  growth inhibition      %             30.9
 7                    CCC(=O)Nc1cc(Cl)ccc1Cl  growth inhibition      %             34.2
 8  CC1(C(Cl)(Cl)Cl)C=C/C(=N\O)C(Cl)=C1 (centres undefined)  growth inhibition      %             -2.3
 9     C/C(=N\N=C(/C)c1ccc(C)cc1)c1ccc(C)cc1  growth inhibition      %             10.7
10  C=C1C(=O)OC2CC(C)C3CC(OCCCl)OC(OCCCl)C3(C)CC12 (centres undefined)  growth inhibition      %             13.8

Shifting focus to the molecule that follows.
Query string: What does the data say about its growth inhibition? Entry: Clc1cccc(Cl)c1/C=N/N1CCN(/N=C/c2c(Cl)cccc2Cl)CC1
Result string: 18.9

* * *

Experiment: NCI Yeast Anticancer Drug Screen. Data for the cln2 rad14 strain (AID 165);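 also: 0% = growth equal to vehicle treated cultures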
Conditions: S. cerevisiae cln2 rad14 strain, at 50.0 µM, hits give high values
This is part of a sample that, as a whole, favours compounds with a hit. Of some 79,000 tested, about 15% had one in any assay.
Listed compounds paired with reported growth inhibition
Record the value in %, omitting the unit from your answer.

These recorded examples may help you get a feel for the data.
> print(dat)
                                   compound  endpoint.result
1  COC1(OC)CC2OC1C1N=NN(C(=O)OC(C)(C)C)C21 (stereo not given)             21.6
2  CC(C)(C)CC(C)(C)c1ccc(OCCOc2ccc(S(=O)(=O)O)cc2[N+](=O)[O-])cc1             1.65
3                    CCCNCc1cccc2ccnc(C)c12             17.6
4                                  N#CCNC=O            -11.9
5                       CCCCCC(O)(CCCC)CCCC            -12.6
6  CC(CN1c2ccccc2Sc2ccccc21)N(C)CCO (stereo not given)             -1.6

Query string: Please look up its growth inhibition: CC(=O)CC(C)=NCCN=C(C)CC(C)=O.[Cu]
Result string: 84.4

Query string: Dear colleague, I am looking for the recorded growth inhibition of the following compound: CCCCc1ccc2nc3cc4ccccc4cc3nc2c1
Result string: -16

Query string: What value of growth inhibition has been reported for the following compound? O=S1(=O)OCCOS(=O)(=O)C1(F)Br
Result string: -8

Query string: // query growth inhibition value for entry Cc1cc(=O)c(O)c(C)o1
Result string: 2.5

Query string: Dear colleague, I am looking for the recorded growth inhibition of the following compound: C=C(Cl)C(C)(Cl)CCC(Cl)C(C)(C)Cl (stereo not given)
Result string: 42.5

Query string: Endpoint output: growth inhibition of CC1(CO)CSC(Nc2ccc(Cl)c(Cl)c2)=N1 (stereo not given) . Value?
Result string: 32.5

Query string: Given the entry CCN(C(=O)c1ccc([N+](=O)[O-])cc1)C(c1ccccc1)P(=O)(c1ccccc1)c1ccccc1 (stereo not given) , report its measured growth inhibition.
Result string: -37

Query string: Which growth inhibition is reported for this compound? CNc1nc(C(F)(F)F)nc(Cl)c1N
Result string: -7.95
